Test: In vivo time to reach maximum plasma concentration value in dog was determined at a dosage of 20 mg/kg
Assay type: ADME, organism-based, Canis lupus familiaris
Set-up: dose 20 mg/kg
Catalogue of Tmax values
quantity: Tmax (h)

[[record]]
cpd_smiles = "CNc1nc2ccc(S(=O)(=O)N(CC(C)C)C[C@@H](O)[C@H](Cc3ccccc3)NC(=O)O[C@H]3CO[C@H]4OCC[C@H]43)cc2o1"
reported_measurement = 2

[[record]]
cpd_smiles = "CC(C)CN(C[C@@H](O)[C@H](Cc1ccccc1)NC(=O)O[C@H]1CO[C@H]2OCC[C@H]21)S(=O)(=O)c1ccc2nc(N(C)CCCN(C)C)sc2c1"
reported_measurement = 1

[[record]]
cpd_smiles = "CC(C)CN(C[C@@H](O)[C@H](Cc1ccccc1)NC(=O)O[C@H]1CO[C@H]2OCC[C@H]21)S(=O)(=O)c1ccc2nc(NCCN3CCCC3)sc2c1"
reported_measurement = 0.5


----------
Assay: In vivo half life value in wistar rat was determined at a dosage of 20 mg/kg
Format: ADME, organism-based
Design: dose 20 mg/kg
quantity: half-life

[[record]]
cpd_smiles = "CC(C)CN(C[C@@H](O)[C@H](Cc1ccccc1)NC(=O)O[C@H]1CO[C@H]2OCC[C@H]21)S(=O)(=O)c1ccc2nc(N)oc2c1"
reported_measurement = "1.6 h"


----------
Catalogue of pEC50 values
Test system: Human immunodeficiency virus 1
Assay: Protease inhibitory activity against HIV-1 r13034 mutant strain was determined
Type: functional, organism-based
quantity: pEC50

[[record]]
molecule = "CC(C)CN(C[C@@H](O)[C@H](Cc1ccccc1)NC(=O)O[C@H]1CO[C@H]2OCC[C@H]21)S(=O)(=O)c1ccc2nc(N(C)CCN3CCCC3)oc2c1"
quantity = "pEC50"
reported_measurement = 6.73

[[record]]
molecule = "CC(C)CN(C[C@@H](O)[C@H](Cc1ccccc1)NC(=O)O[C@H]1CO[C@H]2OCC[C@H]21)S(=O)(=O)c1ccc2nc(NCCN3CCCC3)oc2c1"
quantity = "pEC50"
reported_measurement = 7.48

[[record]]
molecule = "CC(C)CN(C[C@@H](O)[C@H](Cc1ccccc1)NC(=O)O[C@H]1CO[C@H]2OCC[C@H]21)S(=O)(=O)c1ccc2ncsc2c1"
quantity = "pEC50"
reported_measurement = 8.11

[[record]]
molecule = "CC(C)CN(C[C@@H](O)[C@H](Cc1ccccc1)NC(=O)O[C@H]1CO[C@H]2OCC[C@H]21)S(=O)(=O)c1ccc2nc(NCCN(C)C)sc2c1"
quantity = "pEC50"
reported_measurement = 8.09

[[record]]
molecule = "Cc1c(O)cccc1C(=O)N[C@@H](CSc1ccccc1)[C@H](O)CN1C[C@H]2CCCC[C@H]2C[C@H]1C(=O)NC(C)(C)C"
quantity = "pEC50"
reported_measurement = 5.9

[[record]]
molecule = "CC(C)c1nc(CN(C)C(=O)N[C@H](C(=O)N[C@@H](Cc2ccccc2)C[C@H](O)[C@H](Cc2ccccc2)NC(=O)OCc2cncs2)C(C)C)cs1 [RITONAVIR]"
quantity = "pEC50"
reported_measurement = 5.3

[[record]]
molecule = "CC(C)CN(C[C@@H](O)[C@H](Cc1ccccc1)NC(=O)O[C@H]1CO[C@H]2OCC[C@H]21)S(=O)(=O)c1ccc2nc(NCCN(C)C)oc2c1"
quantity = "pEC50"
reported_measurement = 7.61

[[record]]
molecule = "CC(C)CN(C[C@@H](O)[C@H](Cc1ccccc1)NC(=O)O[C@H]1CO[C@H]2OCC[C@H]21)S(=O)(=O)c1ccc2nc(N(C)CCCN(C)C)sc2c1"
quantity = "pEC50"
reported_measurement = 7.32

[[record]]
molecule = "CC(C)CN(C[C@@H](O)[C@H](Cc1ccccc1)NC(=O)O[C@H]1CO[C@H]2OCC[C@H]21)S(=O)(=O)c1ccc2nc(N)sc2c1"
quantity = "pEC50"
reported_measurement = 8.42

[[record]]
molecule = "CC(C)CN(C[C@@H](O)[C@H](Cc1ccccc1)NC(=O)OC1CCOC1)S(=O)(=O)c1ccc(N)cc1 (single isomer, unassigned)"
quantity = "pEC50"
reported_measurement = 6.01

[[record]]
molecule = "CNCCNc1nc2ccc(S(=O)(=O)N(CC(C)C)C[C@@H](O)[C@H](Cc3ccccc3)NC(=O)O[C@H]3CO[C@H]4OCC[C@H]43)cc2s1"
quantity = "pEC50"
reported_measurement = 6.43


----------
Catalogue of pEC50 values
System: Human immunodeficiency virus 1
Assay: Protease inhibitory activity against HIV-1 r13034 mutant strain was determined
Type: functional, organism-based
quantity: pEC50

[[record]]
cpd_smiles = "CNc1nc2ccc(S(=O)(=O)N(CC(C)C)C[C@@H](O)[C@H](Cc3ccccc3)NC(=O)O[C@H]3CO[C@H]4OCC[C@H]43)cc2o1"
reported_measurement = 8.61

[[record]]
cpd_smiles = "CC(C)CN(C[C@@H](O)[C@H](Cc1ccccc1)NC(=O)O[C@H]1CO[C@H]2OCC[C@H]21)S(=O)(=O)c1ccc2nc(NCCN3CCCC3)sc2c1"
reported_measurement = 7.91

[[record]]
cpd_smiles = "CC(C)CN(C[C@@H](O)[C@H](Cc1ccccc1)NC(=O)O[C@H]1CO[C@H]2OCC[C@H]21)S(=O)(=O)c1ccc2nc(NCCCN(C)C)sc2c1"
reported_measurement = 8.17

[[record]]
cpd_smiles = "CNc1nc2ccc(S(=O)(=O)N(CC(C)C)C[C@@H](O)[C@H](Cc3ccccc3)NC(=O)O[C@H]3CO[C@H]4OCC[C@H]43)cc2s1"
reported_measurement = 8.81

[[record]]
cpd_smiles = "CC(C)CN(C[C@@H](O)[C@H](Cc1ccccc1)NC(=O)O[C@H]1CO[C@H]2OCC[C@H]21)S(=O)(=O)c1ccc2nc(N(C)CCCN3CCCC3)oc2c1"
reported_measurement = 6.34

[[record]]
cpd_smiles = "CC(C)CN(C[C@@H](O)[C@H](Cc1ccccc1)NC(=O)O[C@H]1CO[C@H]2OCC[C@H]21)S(=O)(=O)c1ccc2nc(N(C)CCN3CCCC3)sc2c1"
reported_measurement = 6.85


----------
Assay: Maximum plasma concentration value in wistar rat was determined at a dosage of 20 mg/kg
Assay type: ADME, organism-based
Parameters: dose 20 mg/kg
quantity: Cmax (ng/mL)

[[record]]
cpd_smiles = "CC(C)CN(C[C@@H](O)[C@H](Cc1ccccc1)NC(=O)O[C@H]1CO[C@H]2OCC[C@H]21)S(=O)(=O)c1ccc2nc(N)oc2c1"
quantity = "Cmax"
reported_measurement = 260

[[record]]
cpd_smiles = "CNc1nc2ccc(S(=O)(=O)N(CC(C)C)C[C@@H](O)[C@H](Cc3ccccc3)NC(=O)O[C@H]3CO[C@H]4OCC[C@H]43)cc2o1"
quantity = "Cmax"
reported_measurement = 927


----------
Assay: In vivo time to reach maximum plasma concentration value in wistar rat was determined at a dosage of 20 mg/kg
Format: ADME, organism-based
Design: dose 20 mg/kg
quantity: Tmax (h)

[[record]]
cpd_smiles = "CNc1nc2ccc(S(=O)(=O)N(CC(C)C)C[C@@H](O)[C@H](Cc3ccccc3)NC(=O)O[C@H]3CO[C@H]4OCC[C@H]43)cc2o1"
quantity = "Tmax"
u = "h"
reported_measurement = 1.4

[[record]]
cpd_smiles = "CC(C)CN(C[C@@H](O)[C@H](Cc1ccccc1)NC(=O)O[C@H]1CO[C@H]2OCC[C@H]21)S(=O)(=O)c1ccc2nc(N)oc2c1"
quantity = "Tmax"
u = "h"
reported_measurement = 1


----------
Test system: Human immunodeficiency virus 1
Test: Protease inhibitory activity against HIV-1 r13034 mutant strain was determined
Format: functional, organism-based
quantity: pEC50

[[record]]
cpd_smiles = "CC(C)CN(C[C@@H](O)[C@H](Cc1ccccc1)NC(=O)O[C@H]1CO[C@H]2OCC[C@H]21)S(=O)(=O)c1ccc2nc(N)oc2c1"
quantity = "pEC50"
reported_measurement = 8.19

[[record]]
cpd_smiles = "CC(C)CN(C[C@@H](O)[C@H](Cc1ccccc1)NC(=O)O[C@H]1CO[C@H]2OCC[C@H]21)S(=O)(=O)c1ccc2nc(N(C)CCCN3CCCC3)sc2c1"
quantity = "pEC50"
reported_measurement = 7.36

[[record]]
cpd_smiles = "CC(C)CN(C[C@@H](O)[C@H](Cc1ccccc1)NC(=O)O[C@H]1CO[C@H]2OCC[C@H]21)S(=O)(=O)c1ccc2nc(N(C)C)oc2c1"
quantity = "pEC50"
reported_measurement = 6.92

